study system: GalNAc(b1-4)GlcNAc6S
procedure text: glycan array binding signal (z-score within array); higher = stronger binding
test context: glycan notation: IUPAC condensed, linker removed
The entries come from a sample that favours the strongest signals as a whole.
parameter measured: glycan array binding signal (z-score)

Worked cases, answers included:
>>> test_value("SJA (Sophora japonica) (protein) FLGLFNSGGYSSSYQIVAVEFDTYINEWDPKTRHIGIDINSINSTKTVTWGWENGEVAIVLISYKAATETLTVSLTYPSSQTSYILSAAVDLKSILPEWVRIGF")
3.05
>>> test_value("MGL (Homo sapiens), Q8IUN9 (protein) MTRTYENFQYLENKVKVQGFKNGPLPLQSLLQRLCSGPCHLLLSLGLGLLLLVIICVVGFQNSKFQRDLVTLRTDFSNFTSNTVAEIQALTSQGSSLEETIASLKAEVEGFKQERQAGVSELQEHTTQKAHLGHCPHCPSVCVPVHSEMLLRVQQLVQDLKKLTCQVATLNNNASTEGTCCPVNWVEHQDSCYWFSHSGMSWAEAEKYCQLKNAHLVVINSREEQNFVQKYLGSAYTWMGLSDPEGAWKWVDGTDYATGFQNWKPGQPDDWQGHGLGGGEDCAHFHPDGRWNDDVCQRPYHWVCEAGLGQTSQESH")
4.05
>>> test_value("VLRB.aGPA.23-GCN4-biotin (Petromyzon marinus) (protein) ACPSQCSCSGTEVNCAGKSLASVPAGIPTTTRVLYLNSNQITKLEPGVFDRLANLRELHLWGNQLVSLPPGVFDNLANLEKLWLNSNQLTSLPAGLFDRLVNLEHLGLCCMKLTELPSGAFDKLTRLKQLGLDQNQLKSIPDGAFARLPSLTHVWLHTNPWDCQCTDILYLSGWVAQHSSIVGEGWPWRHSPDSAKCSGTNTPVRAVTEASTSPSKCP")
-0.082
>>> test_value("SP16663B-bot-321-25-321 (Bacteroides ovatus) (protein) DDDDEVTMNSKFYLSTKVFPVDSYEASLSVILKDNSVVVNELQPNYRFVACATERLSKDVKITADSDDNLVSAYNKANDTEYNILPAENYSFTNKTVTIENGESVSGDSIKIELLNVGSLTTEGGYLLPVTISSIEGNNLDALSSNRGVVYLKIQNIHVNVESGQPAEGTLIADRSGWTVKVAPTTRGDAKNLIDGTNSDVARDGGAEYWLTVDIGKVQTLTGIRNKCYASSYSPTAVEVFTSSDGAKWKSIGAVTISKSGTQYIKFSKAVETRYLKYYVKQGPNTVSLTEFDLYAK")
-0.779

Moving on to another binder below.
Request: Provide one value: measured glycan array binding signal (z-score) of MAL-II (Maackia amurensis), P93248 (protein) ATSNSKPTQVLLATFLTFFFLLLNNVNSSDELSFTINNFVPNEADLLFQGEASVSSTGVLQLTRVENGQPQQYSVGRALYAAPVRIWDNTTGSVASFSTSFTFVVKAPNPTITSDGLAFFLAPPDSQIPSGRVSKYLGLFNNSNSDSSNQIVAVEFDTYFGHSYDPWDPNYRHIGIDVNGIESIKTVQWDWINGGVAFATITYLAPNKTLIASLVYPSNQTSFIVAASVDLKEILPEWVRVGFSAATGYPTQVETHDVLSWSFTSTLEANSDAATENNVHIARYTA
Response: -0.292
